Tested target: Adrenergic receptor alpha-1 (Rattus norvegicus, UniProt P15823+P23944+P43140)
Protocol text: Ability to block alpha-1 adrenergic receptor-mediated contractions of rat aorta.
Format: functional
Metric: pA2
Note: the reply should be a number with no unit written.

// below: answered compounds
> print(dat)
                                   compound  value.observed
1  CN1C[C@H](COC(=O)C2CCC2)C=C2c3cccc4[nH]cc(c34)C[C@H]21.O=C(O)/C=C\C(=O)O            5.52
2  COC1CCC(C(=O)OCC2=C[C@@H]3c4cccc5c4c(cn5C(C)C)C[C@H]3N(C)C2)CC1.O=C(O)/C=C\C(=O)O (some centres not stated)            4.84
3  CN1C[C@H](COC(=O)C2CCCC2)C[C@@H]2c3cccc4[nH]cc(c34)C[C@H]21.O=C(O)/C=C\C(=O)O            5.95
4  CN1CC(COC(=O)C2CCCC2)=C[C@@H]2c3cccc4[nH]cc(c34)C[C@H]21.O=C(O)/C=C\C(=O)O            5.99
5  CC1=C[C@@H]2c3cccc4c3c(cn4C(C)C)C[C@H]2N(C)C1.O=C(O)/C=C\C(=O)O            6.34

Ask: Any idea what pA2 was measured for CC(C)n1cc2c3c(cccc31)[C@H]1C=C(COC(=O)C3CCCCC3)CN(C)[C@@H]1C2.O=C(O)/C=C\C(=O)O ?
Result: 4.65

Data credit: ChEMBL document CHEMBL1132168
